Provide the reported koff of each item.
- target_system: T1, recombinant mouse soluble gpNMB (recombinant mouse gpNMB-FLAG-His) (mouse, UniProt Q99P91 23-502)
- T1 sequence: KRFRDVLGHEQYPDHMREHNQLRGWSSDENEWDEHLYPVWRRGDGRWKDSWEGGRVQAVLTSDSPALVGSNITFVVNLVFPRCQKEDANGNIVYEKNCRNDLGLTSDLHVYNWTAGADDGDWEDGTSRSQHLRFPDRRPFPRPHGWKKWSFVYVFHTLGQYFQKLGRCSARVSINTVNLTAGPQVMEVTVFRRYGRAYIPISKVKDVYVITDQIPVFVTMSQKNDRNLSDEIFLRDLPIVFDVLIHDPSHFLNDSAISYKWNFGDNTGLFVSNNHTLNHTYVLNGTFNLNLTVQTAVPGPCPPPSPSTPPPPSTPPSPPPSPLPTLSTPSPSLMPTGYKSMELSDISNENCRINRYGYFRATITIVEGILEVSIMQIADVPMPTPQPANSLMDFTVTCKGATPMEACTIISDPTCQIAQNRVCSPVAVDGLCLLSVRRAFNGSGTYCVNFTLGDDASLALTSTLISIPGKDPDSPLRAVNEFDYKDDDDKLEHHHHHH
- assay_explanation: SPR, antibody 100 nM over captured gpNMB-FLAG-His, 25C
The reply should read as a number followed by its unit.

Previously resolved entries follow.
binder	koff
GPN18-2 (antibody, V domains shown, monoclonal with mouse IgG constant regions) VH: QVTLKESGPGILQPSQTLSLTCSFSGFSLSTSVMGVGWIRQPSGKGLEWLADIWWDDDKDYNPSLKSRLTISKDTSKNQVFLKIASVDTADTATYYCARTYYSNYEYYGMDYWGQGTSVTVSS VL: DVLMTQTPLSLPVSLGDQASISCRSSQTIILSNGNTYLEWYLQKPGQSPKLLIYKVSNRFSGVPDRFSGSGSGTDFTLKISRVEAEDLGVYYCFQGSHVPFTFGSGTKLEIK	7.9e-05 s⁻¹
GPN18-7 (antibody, V domains shown, monoclonal with mouse IgG constant regions) VH: QVTLKESGPGILQPSQTLSLTCSFSGFSLSTSVMGVGWIRQPSGKGLEWLADIWWDDDKDYNPSLKSRLTISKDTSKNQVFLKIASVDTADTATYYCARAYYSNFEYYGMDYWGQGTSVTVSS VL: DVLMTQIPLSLPVSLGDQASISCRSSQTIVHSNGNTYLEWYLQKPGQSPKLLIYKVSNRFSGVPDRFSGSGSGTDFTLKISRVEAEDLGVYYCFQGSHVPFTFGSGTKLEIK	0.00099 s⁻¹
GPN18-1 (antibody, V domains shown, monoclonal with mouse IgG constant regions) VH: QVTLKESGPGILQPSQTLSLTCSFSGFSLSTSVMGVGWIRQPSGKGLEWLADIWWDDDKDYNPSLKSRLTISKDTSKNQVFLKIASVDTADTATYYCARAYYSNYEYYGMDYWGQGTSVTVSS VL: DVLMTQTPLSLPVSLGDQASISCRSSQSIVHSNGNTYLEWYLQKPGQSPKLLIYKVSNRFSGVPDRFSGSGSGTDFTLKISRVEAEDLGVYYCFQGSHVPFTFGSGTKLEIK	0.00091 s⁻¹

Lab note: next binder to report on.
I have this binder here, GPN06-1 (antibody, V domains shown, monoclonal with mouse IgG constant regions) VH: QVQLQQPGAEIVRPGASVKLSCKASGYTFTDNWMGWVKQRPGQGLEWIGAIDPSDSFTNYNQNFKGKATLTVDTSSSTAYMQLSSLTSEDSAVYFCTRSGYYGSPKLGGDYWGQGTTLTVSS VL: QIVLTQSPAIMSASLGEEITLTCSASSSISYMHWYQQKSGTSPKLLIYSTSNLASGVPSRFSGSGSGTFYSLTISSVEAEDAADYYCHQWNSYPCTFGGGTKLEIK , and I need its recorded koff.
0.0018 s⁻¹
